- Target or system: HiBit-WIZ fusion protein (Homo sapiens, UniProt O95785+Q96SW2)
- Sequence (O95785 whole entry, the tested form may be a part): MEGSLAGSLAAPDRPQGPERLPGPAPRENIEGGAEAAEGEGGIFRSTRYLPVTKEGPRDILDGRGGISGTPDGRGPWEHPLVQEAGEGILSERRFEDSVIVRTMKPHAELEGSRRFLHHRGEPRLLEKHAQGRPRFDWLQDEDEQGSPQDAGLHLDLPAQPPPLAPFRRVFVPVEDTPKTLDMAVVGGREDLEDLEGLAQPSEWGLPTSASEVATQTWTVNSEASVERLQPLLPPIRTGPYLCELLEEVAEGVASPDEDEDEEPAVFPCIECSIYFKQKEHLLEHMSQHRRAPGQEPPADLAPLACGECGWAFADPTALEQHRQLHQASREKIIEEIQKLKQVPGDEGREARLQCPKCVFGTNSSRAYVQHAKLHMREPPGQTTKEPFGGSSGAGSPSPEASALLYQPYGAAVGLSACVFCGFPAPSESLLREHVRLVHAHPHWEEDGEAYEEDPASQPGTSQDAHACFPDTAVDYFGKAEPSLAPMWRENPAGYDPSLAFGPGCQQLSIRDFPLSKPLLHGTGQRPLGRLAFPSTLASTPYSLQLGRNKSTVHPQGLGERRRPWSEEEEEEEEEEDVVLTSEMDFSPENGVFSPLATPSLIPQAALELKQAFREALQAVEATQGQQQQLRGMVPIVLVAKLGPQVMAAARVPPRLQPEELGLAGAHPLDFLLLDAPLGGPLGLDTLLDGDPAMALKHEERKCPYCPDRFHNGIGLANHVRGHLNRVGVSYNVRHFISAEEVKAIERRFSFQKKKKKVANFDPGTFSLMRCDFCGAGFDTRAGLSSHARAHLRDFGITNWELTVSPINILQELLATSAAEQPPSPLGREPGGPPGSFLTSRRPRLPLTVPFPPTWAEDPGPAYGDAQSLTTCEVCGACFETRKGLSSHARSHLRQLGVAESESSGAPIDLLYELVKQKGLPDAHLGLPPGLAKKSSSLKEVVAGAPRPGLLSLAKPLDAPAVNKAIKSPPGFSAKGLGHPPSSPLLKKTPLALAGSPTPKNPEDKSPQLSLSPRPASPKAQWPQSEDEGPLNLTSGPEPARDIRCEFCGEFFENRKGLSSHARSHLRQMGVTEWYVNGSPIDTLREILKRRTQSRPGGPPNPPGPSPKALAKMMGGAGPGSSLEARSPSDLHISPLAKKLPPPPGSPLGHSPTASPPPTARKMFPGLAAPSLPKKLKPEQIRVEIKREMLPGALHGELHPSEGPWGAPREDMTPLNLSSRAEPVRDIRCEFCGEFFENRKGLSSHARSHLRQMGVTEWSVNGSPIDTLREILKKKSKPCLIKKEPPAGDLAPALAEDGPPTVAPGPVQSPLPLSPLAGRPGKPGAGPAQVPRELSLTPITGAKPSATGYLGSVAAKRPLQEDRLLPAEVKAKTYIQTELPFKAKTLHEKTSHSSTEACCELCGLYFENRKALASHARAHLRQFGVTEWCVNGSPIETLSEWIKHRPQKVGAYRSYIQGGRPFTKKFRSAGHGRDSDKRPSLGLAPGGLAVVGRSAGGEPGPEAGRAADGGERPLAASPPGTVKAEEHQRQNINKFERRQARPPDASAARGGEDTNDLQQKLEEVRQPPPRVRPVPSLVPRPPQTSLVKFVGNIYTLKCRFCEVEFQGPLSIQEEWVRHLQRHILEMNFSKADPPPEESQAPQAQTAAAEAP
- Sequence (Q96SW2 whole entry, the tested form may be a part): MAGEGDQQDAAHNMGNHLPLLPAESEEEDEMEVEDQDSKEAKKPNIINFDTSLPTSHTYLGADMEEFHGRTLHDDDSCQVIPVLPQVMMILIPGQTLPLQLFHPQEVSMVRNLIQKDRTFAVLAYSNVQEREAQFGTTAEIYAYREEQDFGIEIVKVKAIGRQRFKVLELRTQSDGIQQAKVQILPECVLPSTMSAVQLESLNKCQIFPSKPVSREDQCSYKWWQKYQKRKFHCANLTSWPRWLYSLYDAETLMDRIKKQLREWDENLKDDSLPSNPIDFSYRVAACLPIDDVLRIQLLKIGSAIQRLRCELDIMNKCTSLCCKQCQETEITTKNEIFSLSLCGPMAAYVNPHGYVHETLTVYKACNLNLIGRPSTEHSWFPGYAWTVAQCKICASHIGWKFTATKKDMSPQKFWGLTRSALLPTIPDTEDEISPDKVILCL
- Sequence (Q16531 whole entry partner, the tested form may be a part): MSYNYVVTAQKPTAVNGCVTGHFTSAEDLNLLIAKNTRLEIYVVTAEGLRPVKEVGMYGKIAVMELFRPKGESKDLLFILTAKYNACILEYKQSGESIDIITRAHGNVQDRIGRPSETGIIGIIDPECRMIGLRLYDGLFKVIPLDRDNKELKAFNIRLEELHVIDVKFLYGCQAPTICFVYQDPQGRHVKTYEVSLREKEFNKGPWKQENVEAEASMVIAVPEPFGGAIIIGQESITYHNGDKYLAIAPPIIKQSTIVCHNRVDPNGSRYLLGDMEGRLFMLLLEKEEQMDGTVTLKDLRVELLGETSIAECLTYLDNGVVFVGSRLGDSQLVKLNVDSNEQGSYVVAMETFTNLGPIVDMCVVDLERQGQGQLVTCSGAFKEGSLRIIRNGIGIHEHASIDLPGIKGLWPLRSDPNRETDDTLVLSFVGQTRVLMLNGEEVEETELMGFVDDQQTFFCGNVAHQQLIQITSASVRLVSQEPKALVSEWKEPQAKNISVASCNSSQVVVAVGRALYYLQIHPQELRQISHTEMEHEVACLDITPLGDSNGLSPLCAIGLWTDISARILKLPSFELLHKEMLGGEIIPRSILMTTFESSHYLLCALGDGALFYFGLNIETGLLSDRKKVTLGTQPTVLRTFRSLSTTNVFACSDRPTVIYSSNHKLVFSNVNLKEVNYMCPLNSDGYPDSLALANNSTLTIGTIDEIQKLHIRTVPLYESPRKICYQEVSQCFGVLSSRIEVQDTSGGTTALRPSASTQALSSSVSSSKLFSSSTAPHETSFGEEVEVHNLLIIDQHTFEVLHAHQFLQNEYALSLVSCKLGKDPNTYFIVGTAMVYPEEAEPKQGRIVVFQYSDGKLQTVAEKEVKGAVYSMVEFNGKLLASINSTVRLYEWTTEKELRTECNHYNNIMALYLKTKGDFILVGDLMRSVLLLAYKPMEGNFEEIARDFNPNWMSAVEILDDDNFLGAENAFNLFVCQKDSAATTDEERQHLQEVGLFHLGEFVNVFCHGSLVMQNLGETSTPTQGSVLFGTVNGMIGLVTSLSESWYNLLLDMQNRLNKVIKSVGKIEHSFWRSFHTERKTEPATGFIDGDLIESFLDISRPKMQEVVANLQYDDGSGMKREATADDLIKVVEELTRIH
- Test details: Quantification of WIZ protein levels in HiBit tag fusion protein assay (WIZ HiBit assay in 293T cells)
- Type: cell-based
- Parameters: dose or concentration left out as unconfirmed
- Measurement parameters: HEK-293T, 100 minus Amax; 293T cells; read-out: % degradation of WIZ (100-Amax)
Measure: Dmax (%)

Some molecules with recorded Dmax:
CC(C)N1CCC(CN2CCCC[C@H]2COc2ccc3c(c2)CN(C2CCC(=O)NC2=O)C3=O)CC1 (stereo partly shown) [Compound I-50cb] :: 74.5
Cc1nnsc1CN1CCCC[C@H]1COc1ccc2c(c1)CN(C1CCC(=O)NC1=O)C2=O (stereo partly shown) [Compound I-50at] :: 9.8
CC(C)n1cc(C(=O)N2CCCC[C@H]2COc2ccc3c(c2)CN(C2CCC(=O)NC2=O)C3=O)cn1 (stereo partly shown) [Compound I-72dg] :: 21.1
Cc1cc(O)cc(C(=O)N2CCCC[C@H]2COc2ccc3c(c2)CN(C2CCC(=O)NC2=O)C3=O)c1 (stereo partly shown) [Compound I-72hi] :: 13.8
O=C1CCC(N2Cc3cc(OC[C@H]4CCCCN4CC4CCN(Cc5ccccc5)CC4)ccc3C2=O)C(=O)N1 (stereo partly shown) [Compound I-50bg] :: 98

A = O=C1CCC(N2Cc3cc(OC[C@@H]4CCCCN4C(=O)[C@@H]4CCC(=O)N4Cc4ccccc4)ccc3C2=O)C(=O)N1 (stereo partly shown) [Compound I-72ed]
B = CC(C)N1CCC(CC(=O)N2CCCC[C@H]2COc2ccc3c(c2)CN(C2CCC(=O)NC2=O)C3=O)CC1 (stereo partly shown) [Compound I-72fe]
Task: Lower Dmax: A or B ? Please respond with the label that marks your chosen entry.
Output: A
(A: 4.6%, B: 18.5%)
